- Tested on: NCI-H23 lung
- protocol_notes: NCI-60 one-dose screen, 48 h (100 = growth as untreated, 0 = no growth, -100 = all killed)
- protocol_conditions: 10 µM unless noted
About 83,000 compounds went through this panel and 20% of them were active in at least one assay; those are over-represented in the sample as a whole.
Attribute: growth
Give the quantity in %, number only.

# count of solved cases: 2
compound	unit_string	growth
O=C(CSc1nc2sc3c(c2c(=O)n1-c1ccc(Cl)cc1)CCCC3)NNC(=O)c1ccc(F)cc1	%	73.7
O=C(N/N=C/c1ccsc1)c1[nH]c2ccc(Br)cc2c1-c1ccccc1	%	-78

Note: attention shifts to another entry.
State its growth on NCI-H23 lung: COc1c2c(cc3c1C(CCc1ccccc1)N(C)CC3)OCO2 (stereo not drawn)
5.64

###

- System: NCI-H522 lung
- protocol_notes: NCI-60 one-dose screen, 48 h (100 = growth as untreated, 0 = no growth, -100 = all killed)
- protocol_conditions: 10 µM unless noted
This is part of a sample that, as a whole, favours compounds with a hit. Of some 83,000 tested, about 20% had one in any assay.
measured_metric: growth (%)
Give the quantity in %, number only.

# count of solved cases: 10
compound	unit_string	growth
COC(=O)c1cc(C(=O)C(Br)Br)n2c1ccc1c3ccccc3ccc12	%	60.2
COc1cncc(-c2ccc3ncnc(N4CCc5ccc(Cl)cc54)c3c2)c1	%	36.6
C[C@@H]1[C@H]2C[C@@H](C[C@H]1NCc1nc3ccccc3n1C1CCCCCC1)C2(C)C	%	22.9
O=c1[nH]c2ccccc2cc1CSc1ccccc1Nc1nccc(-c2ccc3c(c2)OCO3)n1	%	34.8
Nc1nn2c(-c3cc4cc(Br)ccc4oc3=O)ccnc2c1N=Nc1ccccc1	%	-51.6
O=C(NC(=S)N1CCN(c2ncnc3c2cnn3-c2ccccc2)CC1)c1ccc(F)cc1	%	57.6
COc1ccc2c(c1)c(-c1cc(N)n3nc(-c4c[nH]c5ccccc45)cc3n1)cn2C	%	-70.4
c1n[nH]cc1-c1nc2ccc3cn[nH]c3c2c2c1CCCC2	%	70.7
CC(C)(C)c1cc(-c2cc(-c3ccccc3)[nH]c(=O)c2C#N)cc(C(C)(C)C)c1	%	41.8
O=C(N/N=C/c1ccsc1)c1[nH]c2ccc(Br)cc2c1-c1ccccc1	%	-70.9

State its growth on NCI-H522 lung: COc1ccc2[nH]c(O)c(N=Nc3nc(-c4ccc(Br)cc4)cs3)c2c1
19.1

###

- Tested on: SK-MEL-2 melanoma
- protocol_notes: NCI-60 one-dose screen, 48 h
- protocol_conditions: 10 µM unless noted
This is part of a sample that, as a whole, favours compounds with a hit. Of some 83,000 tested, about 20% had one in any assay. Activity calls are given as the source filed them. Rule for the calls: active = growth percent below 10; inactive = the rest.
Field 'call' accepts 1 (active), -1 (inactive)

compound	qualitative_label
O=C1/C(=C/c2cccc3c2OCO3)Cc2c(F)cc(Br)cc21	-1
CN(C)c1nc(NCCNS(=O)(=O)c2ccc(C3=Nc4c(N)nc(N)nc4NC(c4ccc(C(F)(F)F)cc4)C3)cc2)nc(N2CCOCC2)n1 (stereo unspecified)	-1
COc1ccc(N=Nc2c(N)nn3c(-c4ccc([N+](=O)[O-])cc4)ccnc23)cc1	-1
Nc1cc2ccccc2c(=O)n1NC(=O)c1ccc(Br)cc1	-1
COc1c(B(O)O)cc(F)cc1-c1nc2ccc3[nH]ncc3c2c2c1COCC2	-1

Just curious, what result did O=C(c1ccc(O)cc1)C1[C@H](c2ccccc2Br)[C@@H](c2ccccc2)NC12C(=O)Nc1ccccc12 (stereo partly specified) get here?
1

###

- Tested on: SF-539 CNS
- protocol_notes: NCI-60 one-dose screen, 48 h
- protocol_conditions: 10 µM unless noted
This is part of a sample that, as a whole, favours compounds with a hit. Of some 83,000 tested, about 20% had one in any assay. Calls of active or inactive are those of the source. Rule for the calls: active = growth percent below 10; inactive = the rest.
Field 'call' accepts 1 = active, -1 = inactive

compound	qualitative_label
O=S(=O)(c1nc(-c2ccc(Br)cc2)oc1-c1ccc(Cl)cc1)N1CCCC(O)C1 (stereo not drawn)	-1
CC(C)C[C@H](NC(=O)CNC(=O)C[C@H]1O[C@@H]2OC3(C)CC[C@H]4[C@H](C)CC[C@@H]([C@H]1C)[C@@]24O3)B(O)O	1

Just curious, what result did COc1cc(C2CC(c3ccc(C(F)(F)F)cc3)=Nc3c(N)nc(N)nc3N2)ccc1Oc1nc(Nc2ccc(F)cc2)nc(N(C)C)n1 (stereo not drawn) get here?
-1

###

- Tested on: SN12C renal
- protocol_notes: NCI-60 one-dose screen, 48 h (100 = growth as untreated, 0 = no growth, -100 = all killed)
- protocol_conditions: 10 µM unless noted
The panel holds about 83,000 compounds, 20% with a hit somewhere; the sample as a whole holds those more often.
measured_metric: growth (%)
Give the quantity in %, number only.

# count of solved cases: 5
compound	unit_string	growth
Cn1cc(-c2cc(N)n3nc(-c4c[nH]c5ccccc45)cc3n2)c2cc(Cl)ccc21	%	-81.2
Cc1cc(C)c2[nH]c(=O)c(C(c3nnnn3Cc3ccc4c(c3)OCO4)N3CCN(C)CC3)cc2c1 (stereo not given)	%	108
CN(C)C(=O)c1cc(-c2ccc3ncnc(N4CCc5cc(F)c(Cl)cc54)c3c2)cnc1N	%	-9.32
CC[C@]12C=CCN3CC[C@@]4(c5ccc(OC)cc5N(C)[C@H]4[C@@](O)(C(=O)OC)[C@@H]1OC(=O)CCCC[P+](c1ccc(F)cc1)(c1ccc(F)cc1)c1ccc(F)cc1)[C@@H]32	%	10.6
Cc1[nH]nc2ccc3nc(-c4cnn(CCO)c4)c4c(c3c12)CCCC4	%	32.3

Any idea what growth was measured for CCc1ccc(SC2c3cc(OC)ccc3Oc3nc(N)c(C#N)c(N)c32)cc1 (stereo not given) ?
1.31

Any idea what growth was measured for Cc1ccc(-c2cc(C(=O)N=Nc3c(O)[nH]c4ccc(F)cc34)c3ccccc3n2)cc1 ?
18.1

Any idea what growth was measured for ClC(Cn1ncc2c(Nc3cccc(Br)c3)nc(SCCN3CCOCC3)nc21)c1ccc(Br)cc1 (stereo not given) ?
26.2

Any idea what growth was measured for NNc1ncnc2sc3c(c12)CCN(Cc1ccccc1)C3 ?
57

Any idea what growth was measured for O=C1Nc2cc(-c3ccc(NS(=O)(=O)c4ccc(F)c(Cl)c4)cc3)ccc2/C1=C/c1ccc[nH]1 ?
55.3

###

- Tested on: NCI-H522 lung
- protocol_notes: NCI-60 one-dose screen, 48 h (100 = growth as untreated, 0 = no growth, -100 = all killed)
- protocol_conditions: 10 µM unless noted
- Experimental: Growth inhibition of the NCI-H522 human Non-Small Cell Lung tumor cell line is measured as a screen for anti-cancer activity. Cells are grown in 96 well plates and exposed to the test compound for 48 hours. Compounds are tested at a single concentration, which is 10^-5 M for most compounds. The reported endpoint is percent growth (GI% or GIPRCNT), where numbers from 0 - 100% represent growth inhibition, and numbers from -100% - 0 represent cell death. […]
About 83,000 compounds went through this panel and 20% of them were active in at least one assay; those are over-represented in the sample as a whole.
Attribute: growth
Give the quantity in %, number only.

# count of solved cases: 5
molecule	unit_string	growth
Cc1nn(-c2ccccc2)c2nc(C)n(C(=O)N/N=C/c3cccc([N+](=O)[O-])c3)c(=O)c12	%	47.4
COc1ccc(N=Nc2c(N)nn3c(-c4ccc(F)cc4)ccnc23)cc1	%	86.5
CN(CCSSCCN1CCOCC1)C(=O)Oc1cc2c(c3ccccc13)[C@H](CCl)CN2C(=O)c1cc2cc(OCCCN3CCC3)ccc2[nH]1	%	-66.4
N#C/C(=C/c1ccc([N+](=O)[O-])cc1)c1nnc(NC(=O)c2ccc(-n3c(=O)[nH]c4ccccc4c3=O)cc2)s1	%	108
COc1cc2cc(C(=O)N3C[C@@H](CCl)c4c3cc(OC(=O)N(CCC(=O)N3CCN(C)CC3)C3CCCCC3)c3ccccc43)[nH]c2c(OC)c1OC	%	-82

Any idea what growth was measured for CC1=C(C)C(=O)C(N2CCSCC2)=CC1=O ?
94.3

Any idea what growth was measured for CC(C)C[C@H](NC(=O)CNC(=O)C[C@H]1O[C@@H]2OC3(C)CC[C@H]4[C@H](C)CC[C@@H]([C@H]1C)[C@@]24O3)B(O)O ?
-74.3

Any idea what growth was measured for CCCn1c(NC(=O)c2cccc(C(N)=O)c2)nc2cc(CN3CCCCC3)ccc21 ?
83.1

Any idea what growth was measured for CCCn1c(NC(=O)c2cccc(C(N)=O)c2)nc2ccc(CN3CCCCC3)cc21 ?
94.1

###

- Tested on: UO-31 renal
- protocol_notes: NCI-60 one-dose screen, 48 h (100 = growth as untreated, 0 = no growth, -100 = all killed)
- protocol_conditions: 10 µM unless noted
About 83,000 compounds went through this panel and 20% of them were active in at least one assay; those are over-represented in the sample as a whole.
Quick rule: growth of at least 70% means rule met, below that means rule not met.

Observe how each entry below is paired with its result.
compound	qualitative_label
CCCn1c(NC(=O)c2cccc(C(N)=O)c2)nc2cc(CN3CCCCC3)ccc21	rule not met
C=CCSc1nnc(-c2ccc(-c3nc4ccccc4[nH]3)cc2)o1	rule not met
Cc1nn(-c2ccccc2)c2ncn(CC(=O)N/N=C/c3ccccc3O)c(=O)c12	rule not met

Is reported growth greater than or equal to 70% here: CCOc1ccc2[nH]c(=O)c(C(c3nnnn3CC3CCCO3)N3CCN(Cc4ccccc4)CC3)cc2c1 (stereo unspecified)
rule met

Is reported growth greater than or equal to 70% here: CCOc1ccc(-c2cc(-c3cc(C(C)C)c(O)cc3C)nn2-c2ccc(S(N)(=O)=O)cc2)cc1
rule not met

Is reported growth greater than or equal to 70% here: Nc1nc(-c2ccccc2)c(N=Nc2ccc(Cl)cc2Cl)s1
rule not met
